Origin of values: patent US20240124585A1

- Target or system: T1, human CD3 epsilon (Acro Cat #CDE-H5223) (human, UniProt P07766 23-126)
- T1 construct: Bought recombinant protein; also called rhCD3E
- T1 sequence (P07766 23-126 limits assumed): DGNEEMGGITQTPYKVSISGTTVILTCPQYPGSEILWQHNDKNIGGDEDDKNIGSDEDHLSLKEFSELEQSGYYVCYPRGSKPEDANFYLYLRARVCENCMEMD
- Experimental protocol: SPR (Biacore), antibody captured, human CD3 epsilon analyte
Readout name: log10(Kd) (log10 of the value in nM)

>  <Binder>
2037-B10_Hc-F27D (antibody, human IgG1, lambda, V domains shown, human IgG1, lambda; also called SRP 2037 F27D; 2037-B10_VH-F27D) VH: EVQLVESGGGLVKPGGSLRLSCAASGDTFNKYAMNWVRQAPGKGLEWVARIRTKYNNYATYYADSVKDRFTISRDDSKNTAYLQMNSLKTEDTAVYYCVRHGNFGNSYISYWAYWGQGTPVTVSS VL: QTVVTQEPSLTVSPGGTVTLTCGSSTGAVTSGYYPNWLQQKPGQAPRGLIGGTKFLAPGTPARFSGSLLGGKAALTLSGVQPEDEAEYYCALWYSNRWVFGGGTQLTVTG

>  <Readout name>
log10(Kd)

>  <Test result>
0.03

$$$$
>  <Binder>
2037-B10_Hc-N56D (antibody, human IgG1, lambda, V domains shown, human IgG1, lambda; also called SRP 2037 N56D; 2037-B10_VH-N56D) VH: EVQLVESGGGLVKPGGSLRLSCAASGFTFNKYAMNWVRQAPGKGLEWVARIRTKYDNYATYYADSVKDRFTISRDDSKNTAYLQMNSLKTEDTAVYYCVRHGNFGNSYISYWAYWGQGTPVTVSS VL: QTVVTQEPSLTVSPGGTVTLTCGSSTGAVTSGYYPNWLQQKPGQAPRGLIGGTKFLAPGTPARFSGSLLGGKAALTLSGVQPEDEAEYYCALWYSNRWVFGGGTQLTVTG

>  <Readout name>
log10(Kd)

>  <Test result>
0.73

$$$$
>  <Binder>
2037-B10_Hc-Y108D (antibody, human IgG1, lambda, V domains shown, human IgG1, lambda; also called 2037-B10_VH-Y108D) VH: EVQLVESGGGLVKPGGSLRLSCAASGFTFNKYAMNWVRQAPGKGLEWVARIRTKYNNYATYYADSVKDRFTISRDDSKNTAYLQMNSLKTEDTAVYYCVRHGNFGNSDISYWAYWGQGTPVTVSS VL: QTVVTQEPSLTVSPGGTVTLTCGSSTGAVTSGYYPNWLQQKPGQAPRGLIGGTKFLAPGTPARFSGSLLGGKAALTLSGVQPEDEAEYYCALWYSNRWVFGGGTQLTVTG

>  <Readout name>
log10(Kd)

>  <Test result>
-0.62

$$$$
>  <Binder>
2037-B10_Hc-Y61D (antibody, human IgG1, lambda, V domains shown, human IgG1, lambda; also called SRP 2037 Y61D; 2037-B10_VH-Y61D) VH: EVQLVESGGGLVKPGGSLRLSCAASGFTFNKYAMNWVRQAPGKGLEWVARIRTKYNNYATDYADSVKDRFTISRDDSKNTAYLQMNSLKTEDTAVYYCVRHGNFGNSYISYWAYWGQGTPVTVSS VL: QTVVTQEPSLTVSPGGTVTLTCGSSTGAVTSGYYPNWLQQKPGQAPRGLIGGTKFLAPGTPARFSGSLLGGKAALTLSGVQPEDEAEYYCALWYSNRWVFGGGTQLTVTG

>  <Readout name>
log10(Kd)

>  <Test result>
0.26

$$$$
>  <Binder>
2037-B10_Hc-G105D (antibody, human IgG1, lambda, V domains shown, human IgG1, lambda; also called SRP 2037 G105D; 2037-B10_VH-G105D) VH: EVQLVESGGGLVKPGGSLRLSCAASGFTFNKYAMNWVRQAPGKGLEWVARIRTKYNNYATYYADSVKDRFTISRDDSKNTAYLQMNSLKTEDTAVYYCVRHGNFDNSYISYWAYWGQGTPVTVSS VL: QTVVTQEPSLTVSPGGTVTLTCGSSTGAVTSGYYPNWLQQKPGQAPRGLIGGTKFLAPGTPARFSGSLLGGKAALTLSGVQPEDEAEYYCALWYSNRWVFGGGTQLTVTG

>  <Readout name>
log10(Kd)

>  <Test result>
-0.12

$$$$
>  <Binder>
2037-B10_Hc-N106D (antibody, human IgG1, lambda, V domains shown, human IgG1, lambda; also called SRP 2037 N106D; 2037-B10_VH-N106D) VH: EVQLVESGGGLVKPGGSLRLSCAASGFTFNKYAMNWVRQAPGKGLEWVARIRTKYNNYATYYADSVKDRFTISRDDSKNTAYLQMNSLKTEDTAVYYCVRHGNFGDSYISYWAYWGQGTPVTVSS VL: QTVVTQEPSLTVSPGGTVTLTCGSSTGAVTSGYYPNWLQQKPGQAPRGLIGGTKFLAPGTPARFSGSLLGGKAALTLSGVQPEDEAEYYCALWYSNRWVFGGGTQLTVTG

>  <Readout name>
log10(Kd)

>  <Test result>
-0.08

$$$$
